Reported MIC P. vulgaris is given for each of the following substances.
system: Proteus vulgaris; experiment: MIC against Gram-negative bacteria: Proteus vulgaris; type: cell-based; settings: 10 h cultivation at 37° C., 5×10^5 CFU/mL, two-fold serial dilution
// units = µg/mL; emit number, no label

INSERT INTO assay_data (substance, measured) VALUES
  ('PRT1141 (EINECSSEPCKNNGTCVDLTNRFFCNCEPEYHGPFCE; listed as Homo sapiens)', 12.5);

Q: Fill in the blank: the reported MIC P. vulgaris of PRT1078 (GTNKCRVNNGGCSSLCLATPGSRQCACAEDQVLDADGVTCL; listed as Homo sapiens) is ____.
Result: 50

Q: Fill in the blank: the reported MIC P. vulgaris of PRT1144 (NANDCLSNPCLHGRCTELINEYPCSCDADGTSTQCK; listed as Homo sapiens) is ____.
Result: 12.5

Q: Fill in the blank: the reported MIC P. vulgaris of PRT1044 (FGQDCAETCDCAPDARCFPANGACLCEHGFTGDRCT; listed as Homo sapiens) is ____.
Result: 25

====

Reported MIC (μg/mL) S. marcescens is given for each of the following substances.
tested on: Serratia marcescens; assay: MIC against Gram-negative bacteria: Serratia marcescens; format: cell-based; settings: Serratia marcescens; 96-well plate, 5×10^5 CFU/mL, 37° C., 10 h
I'd appreciate it if you wrote the number followed by its unit.

// known answers, use as guide
INSERT INTO assay_data (substance, measured) VALUES
  ('PRT103 (CSSYGKLCRNGGKCRERPIGFFCDCTFSAYTGPFC; listed as Homo sapiens)', '25 µg/mL'),
  ('PRT129 (CSTYGHLCRNGGRCREKRRGVTCDCAFSAYDGPFC; listed as Homo sapiens)', '12.5 µg/mL'),
  ('PRT15 (GDHPCLPNPCHGGAPCQNLEAGRFHCQCPPGRVGPTCA; listed as Homo sapiens)', '25 µg/mL');

Q: Fill in the blank: the reported MIC (μg/mL) S. marcescens of PRT114 (PKYGCNFNNGGCHQDCFEGGDGSFLCGCRPGFRLLDDLVTCA; listed as Homo sapiens) is ____.
Result: 12.5 µg/mL

Q: Fill in the blank: the reported MIC (μg/mL) S. marcescens of PRT73 (TNGQCQCKENYYKLLAQDTCLPCDCFPHGSHSRTCD; listed as Homo sapiens) is ____.
Result: 12.5 µg/mL

====

tested on: Serratia marcescens; experiment: MIC against Gram-negative bacteria: Serratia marcescens; format: cell-based; conditions: Serratia marcescens; 5×10^5 CFU/mL; 10 h cultivation at 37° C.
Parameter: MIC against S. marcescens (µg/mL)
// units = µg/mL; emit number, no label

INSERT INTO results (substance, assayed_target, measured) VALUES
  ('PRT1410 (IEGCPGLCNSNGRCTLDQNGWHCVCQPGWRGAGCD; listed as Homo sapiens)', 'Serratia marcescens', 12.5);

Q: Fill in the blank: the reported MIC against S. marcescens of PRT1486 (TVKSCDCLNGGSCVSDRNFSPGSGVYLCVCLPGFHGSLCE; listed as Homo sapiens) is ____.
Result: 12.5

Q: Fill in the blank: the reported MIC against S. marcescens of PRT1361 (SELICPNDCFDRGRCINGTCYCEEGFTGEDCG; listed as Homo sapiens) is ____.
Result: 50

Q: Fill in the blank: the reported MIC against S. marcescens of PRT1479 (AKNECHPERTDGCQHFCLPGQESYTCSCAQGYRLGEDHKQCV; listed as Homo sapiens) is ____.
Result: 12.5

Q: Fill in the blank: the reported MIC against S. marcescens of PRT1396 (LGADCAKAACPVLCSGNGQYSKGTCQCYSGWKGAECD; listed as Homo sapiens) is ____.
Result: 12.5

Q: Fill in the blank: the reported MIC against S. marcescens of PRT1386 (GSRACPRDCRGRGRCENGVCVCNAGYSGEDC; listed as Homo sapiens) is ____.
Result: 12.5

Q: Fill in the blank: the reported MIC against S. marcescens of PRT1385 (GVRSCPGDCNQRGRCEDGRCVCWPGYTGTDC; listed as Homo sapiens) is ____.
Result: 50

Q: Fill in the blank: the reported MIC against S. marcescens of PRT1376 (ATRMCPADCRGRGRCVQGVCLCHVGYGGEDCG; listed as Homo sapiens) is ____.
Result: 25

====

System: Aeromonas hydrophila
Assay: MIC against Gram-negative bacteria: Aeromonas hydrophila
Assay type: cell-based
Details: A. hydrophila; 10 h cultivation at 37° C.; 5×10^5 CFU/mL
Protocol: 1. Gram-negative bacteria, such as E. coli BL21, Pseudomonas aeruginosa, Klebsiella pneumonia, Enterobacter cloacae, Aeromonas hydrophila, Citrobacter diversus, Moraxella catarrhalis, Proteus mirabilis, Proteus vulgaris, Serratia marcescens, etc were streaked on solid LB medium and cultured respectively. Then, typical clones were picked, inoculated into common liquid LB medium respectively, and cultured at 37° C. with shaking at 185 rpm until the McFarland specific turbidity was 0.5. […]
Parameter: MIC (μg/mL) A. hydrophila
I'd appreciate it if you wrote the number followed by its unit.

// known answers, use as guide
INSERT INTO results (substance, parameter, measured) VALUES
  ('PRT748 (YTASCQPWSCSGHGECVEIINNYTCNCDVGYYGPQCQ; listed as Homo sapiens)', 'MIC (μg/mL) A. hydrophila', '12.5 µg/mL'),
  ('PRT839 (DVDECRLGLARCHPRATCLNTPLSYECHCQRGYQGDGISHCN; listed as Homo sapiens)', 'MIC (μg/mL) A. hydrophila', '12.5 µg/mL'),
  ('PRT247 (GAAICQPPCRNGGSCVQPGRCRCPAGWRGDTCQ; listed as Homo sapiens)', 'MIC (μg/mL) A. hydrophila', '12.5 µg/mL'),
  ('PRT172 (CADGPCFNGGRCSDSPDGGYSCRCPVGYSGFNC; listed as Homo sapiens)', 'MIC (μg/mL) A. hydrophila', '12.5 µg/mL'),
  ('PRT194 (CRSKCHGHGVCDSNRHCYCEEGWAPPDCT; listed as Homo sapiens)', 'MIC (μg/mL) A. hydrophila', '12.5 µg/mL'),
  ('PRT249 (EAICAKPCLNGGVCVRPDQCECAPGWGGKHCH; listed as Homo sapiens)', 'MIC (μg/mL) A. hydrophila', '12.5 µg/mL'),
  ('PRT771 (VQDLCSKTTCKNDGVCTVRDGKAECRCQSGEDWWYMGERCE; listed as Homo sapiens)', 'MIC (μg/mL) A. hydrophila', '12.5 µg/mL'),
  ('PRT758 (RVDHCAQQDHGCEQLCLNTEDSFVCQCSEGFLINEDLKTCS; listed as Homo sapiens)', 'MIC (μg/mL) A. hydrophila', '50 µg/mL');

Q: Fill in the blank: the reported MIC (μg/mL) A. hydrophila of PRT799 (FHACSCHNGASCSAEDGACHCTPGWTGLFCT; listed as Homo sapiens) is ____.
Result: 12.5 µg/mL

Q: Fill in the blank: the reported MIC (μg/mL) A. hydrophila of PRT178 (SGVTCADGPCFNGGLCVGGADPDSAYICHCPPGFQGSNCE; listed as Homo sapiens) is ____.
Result: 12.5 µg/mL

Q: Fill in the blank: the reported MIC (μg/mL) A. hydrophila of PRT254 (PCLEGGTCILSPKGASCNCPHPYTGDRCE; listed as Homo sapiens) is ____.
Result: 25 µg/mL

====

system: Serratia marcescens; test: MIC against Gram-negative bacteria: Serratia marcescens; format: cell-based; settings: 96-well plate, 5×10^5 CFU/mL, 37° C., 10 h
Parameter: MIC against S. marcescens (mg/L)
// units = mg/L; emit number, no label

INSERT INTO results (substance, unit_text, measured) VALUES
  ('PRT567 (CTCDPAGSQNEGICDSYTDFSTGLIAGQCRCKLNVEGEHCDVCKEGFYDLSSEDPFGCKS; listed as Homo sapiens)', 'mg/L', 12.5),
  ('PRT507 (CICYGHARACPLDPATNKSRCECEHNTCGDSCDQCCPGFHQKPWRAGTFLTKTECEA; listed as Homo sapiens)', 'mg/L', 25),
  ('PRT544 (CDCGARLCDELTGQCICPPRTIPPDCLLCQPQTFGCHPLVGCEE; listed as Homo sapiens)', 'mg/L', 12.5),
  ('PRT541 (CSCDLRGTLGGVAECQPGTGQCFCKPHVCGQACASCKDGFFGLDQADYFGCRS; listed as Homo sapiens)', 'mg/L', 50);

Q: Fill in the blank: the reported MIC against S. marcescens of PRT512 (CACPLISSSNNFSPSCVAEGLDDYRCTACPRGYEGQYCERCAPGYTGSPGNPGGSCQE; listed as Homo sapiens) is ____.
Result: 12.5

Q: Fill in the blank: the reported MIC against S. marcescens of PRT557 (CGCSPAGTLPEGCDEAGRCLCQPEFAGPHCDRCRPGYHGFPNCQA; listed as Homo sapiens) is ____.
Result: 12.5

Q: Fill in the blank: the reported MIC against S. marcescens of PRT535 (CQCDIGGALSSMCSGPSGVCQCREHVVGKVCQRPENNYYFPDLHH; listed as Homo sapiens) is ____.
Result: 50

Origin of the recorded values: patent US9833497B2
